# Experiment Summary: Pharmacokinetic study in rats
# Test Parameters: SD (Sprague-Dawley), rat, plasma, oral, 20 μmol/kg, Plasma concentration Mean, SD rats, intragastric 20 μmol/kg, 360 min, mean of 3 rats
Counter-ions that a name gives are not always drawn.
Measured Property: concentration at 360 min (nM)
API: value field is a number in nM; no unit string.

Query block: Report concentration at 360 min for CNC(=O)c1ccc(-c2cnc3ncc(Cc4ccc5ncccc5c4)n3n2)cc1F [INCB28060 hydrochloride]
Result block: 180

###

# Experiment Summary: Pharmacokinetic study in rats
# Test Parameters: SD (Sprague-Dawley), rat, plasma, oral, 20 μmol/kg, Plasma concentration Rat 3, SD rats, intragastric 20 μmol/kg, 5 min, Rat 3
# Method: All stock solutions of the test compound were sonicated and heated to become clarified and formulated to a 25 mM solution with DMSO. All samples were dosed at 20 μmol/kg. The blood sample was centrifuged at 8000 rpm for 5 min, the plasma was collected in a centrifuge tube and stored at −20° C. for use. Treatment of the plasma sample: the proteins in 50 μL plasma sample were precipitated with 200 μL acetonitrile containing internal standard (Propranolol (PRO), 2.5 ng/mL). […]
Counter-ions that a name gives are not always drawn.
Measured Property: concentration at 5 min (nM)
API: value field is a number in nM; no unit string.

Query block: Report concentration at 5 min for CNC(=O)c1ccc(-c2cnc3ncc(Cc4ccc5ncccc5c4)n3n2)cc1F [INCB28060 hydrochloride]
Result block: 22.2

###

# Experiment Summary: Pharmacokinetic study in rats
# Test Parameters: SD (Sprague-Dawley), rat, plasma, oral, 20 μmol/kg, Plasma concentration Rat 3, SD rats, intragastric 20 μmol/kg, 120 min, Rat 3
Where a name gives a salt, the structure may show the parent alone.
Measured Property: concentration at 120 min (nM)
API: value field is a number in nM; no unit string.

Query block: Report concentration at 120 min for CNC(=O)c1ccc(-c2cnc3ncc(Cc4ccc5ncccc5c4)n3n2)cc1F [INCB28060 hydrochloride]
Result block: 758

###

# Experiment Summary: Pharmacokinetic study in rats
# Test Parameters: SD (Sprague-Dawley), rat, plasma, oral, 20 μmol/kg, Plasma concentration Rat 3, SD rats, intragastric 20 μmol/kg, 60 min, Rat 3
Counter-ions that a name gives are not always drawn.
Measured Property: concentration at 60 min (nM)
API: value field is a number in nM; no unit string.

Query block: Report concentration at 60 min for CNC(=O)c1ccc(-c2cnc3ncc(Cc4ccc5ncccc5c4)n3n2)cc1F [INCB28060 hydrochloride]
Result block: 897

###

# Experiment Summary: Pharmacokinetic study in rats
# Test Parameters: SD (Sprague-Dawley), rat, plasma, oral, 20 μmol/kg, Plasma concentration Rat 3, SD rats, intragastric 20 μmol/kg, 1440 min, Rat 3
Counter-ions that a name gives are not always drawn.
Measured Property: concentration at 1440 min
Please answer in the form of a number followed by its unit of measurement.

Query block: Report concentration at 1440 min for CNC(=O)c1ccc(-c2cnc3ncc(Cc4ccc5ncccc5c4)n3n2)cc1F [INCB28060 hydrochloride]
Result block: 15.6 nM

###

# Experiment Summary: Pharmacokinetic study in rats
# Test Parameters: SD (Sprague-Dawley), rat, plasma, oral, 20 μmol/kg, Plasma concentration Rat 2, SD rats, intragastric 20 μmol/kg, 90 min, Rat 2
# Method: All stock solutions of the test compound were sonicated and heated to become clarified and formulated to a 25 mM solution with DMSO. All samples were dosed at 20 μmol/kg. The blood sample was centrifuged at 8000 rpm for 5 min, the plasma was collected in a centrifuge tube and stored at −20° C. for use. Treatment of the plasma sample: the proteins in 50 μL plasma sample were precipitated with 200 μL acetonitrile containing internal standard (Propranolol (PRO), 2.5 ng/mL). […]
Counter-ions that a name gives are not always drawn.
Measured Property: concentration at 90 min (nM)
API: value field is a number in nM; no unit string.

Query block: Report concentration at 90 min for CNC(=O)c1ccc(-c2cnc3ncc(Cc4ccc5ncccc5c4)n3n2)cc1F [INCB28060 hydrochloride]
Result block: 961
